Sourced from paper PMC4131897

Molecular target: BjPutA (proline utilization A) (Bradyrhizobium diazoefficiens, UniProt Q89E26, D779W)
Test: intrinsic tryptophan fluorescence quenching

smiles-repr: NC(=O)c1ccc[n+]([C@@H]2O[C@H](COP(=O)(O)OP(=O)(O)OC[C@H]3O[C@@H](n4cnc5c(N)ncnc54)[C@H](O)[C@@H]3O)[C@@H](O)[C@H]2O)c1
tested-on: BjPutA (proline utilization A) (Bradyrhizobium diazoefficiens, UniProt Q89E26, D779W)
Kd (nM): 780

###

Molecular target: BjPutA (proline utilization A) (Bradyrhizobium diazoefficiens)
Sequence (Q89E26 1-999): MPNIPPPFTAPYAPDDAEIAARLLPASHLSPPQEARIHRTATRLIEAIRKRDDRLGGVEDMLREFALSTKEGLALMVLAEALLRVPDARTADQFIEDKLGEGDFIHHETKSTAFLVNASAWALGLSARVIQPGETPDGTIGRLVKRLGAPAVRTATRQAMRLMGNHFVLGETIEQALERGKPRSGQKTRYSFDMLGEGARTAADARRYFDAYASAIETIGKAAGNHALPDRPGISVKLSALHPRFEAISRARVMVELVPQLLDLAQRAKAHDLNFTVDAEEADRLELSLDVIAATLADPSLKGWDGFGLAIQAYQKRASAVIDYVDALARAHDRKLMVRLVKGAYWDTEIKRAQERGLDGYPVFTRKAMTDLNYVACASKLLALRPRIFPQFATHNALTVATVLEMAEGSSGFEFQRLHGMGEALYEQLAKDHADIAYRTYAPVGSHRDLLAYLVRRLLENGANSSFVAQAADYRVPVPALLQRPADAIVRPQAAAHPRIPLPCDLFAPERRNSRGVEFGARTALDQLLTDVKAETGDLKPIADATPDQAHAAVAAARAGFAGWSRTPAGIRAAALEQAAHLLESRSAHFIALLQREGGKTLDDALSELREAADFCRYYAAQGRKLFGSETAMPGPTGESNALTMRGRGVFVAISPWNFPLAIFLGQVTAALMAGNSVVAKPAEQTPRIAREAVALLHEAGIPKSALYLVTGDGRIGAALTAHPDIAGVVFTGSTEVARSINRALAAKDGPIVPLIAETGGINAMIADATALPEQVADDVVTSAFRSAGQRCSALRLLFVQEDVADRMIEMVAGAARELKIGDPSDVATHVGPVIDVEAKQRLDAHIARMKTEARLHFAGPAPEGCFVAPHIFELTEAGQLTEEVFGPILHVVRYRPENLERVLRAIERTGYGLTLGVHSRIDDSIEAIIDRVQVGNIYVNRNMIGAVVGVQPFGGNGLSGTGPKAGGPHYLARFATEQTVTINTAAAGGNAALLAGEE
Experiment: intrinsic tryptophan fluorescence quenching, single-site fit
pKd: −log10 of the molar value.
assay-readout: pKd

smiles-repr: NC(=O)c1ccc[n+]([C@@H]2O[C@H](COP(=O)(O)OP(=O)(O)OC[C@H]3O[C@@H](n4cnc5c(N)ncnc54)[C@H](O)[C@@H]3O)[C@@H](O)[C@H]2O)c1
tested-on: BjPutA (proline utilization A) (Bradyrhizobium diazoefficiens)
value-measured: 6.22

###

Biological target: BjPutA (proline utilization A) (Bradyrhizobium diazoefficiens, UniProt Q89E26, S607Y)
Assay: intrinsic tryptophan fluorescence quenching

compound: NC(=O)c1ccc[n+]([C@@H]2O[C@H](COP(=O)(O)OP(=O)(O)OC[C@H]3O[C@@H](n4cnc5c(N)ncnc54)[C@H](O)[C@@H]3O)[C@@H](O)[C@H]2O)c1 [NAD^+]
tested-on: BjPutA (proline utilization A) (Bradyrhizobium diazoefficiens, UniProt Q89E26, S607Y)
Kd / µM: 1

###

Molecular target: BjPutA (proline utilization A) (Bradyrhizobium diazoefficiens, UniProt Q89E26, T348Y)
Experiment: intrinsic tryptophan fluorescence quenching
pKd: −log10 of the molar value.

smiles-repr: NC(=O)c1ccc[n+]([C@@H]2O[C@H](COP(=O)(O)OP(=O)(O)OC[C@H]3O[C@@H](n4cnc5c(N)ncnc54)[C@H](O)[C@@H]3O)[C@@H](O)[C@H]2O)c1
tested-on: BjPutA (proline utilization A) (Bradyrhizobium diazoefficiens, UniProt Q89E26, T348Y)
pKd: 6.12

###

Target: BjPutA (proline utilization A) (Bradyrhizobium diazoefficiens, UniProt Q89E26, D778Y)
Experiment: intrinsic tryptophan fluorescence quenching

smiles-repr: NC(=O)c1ccc[n+]([C@@H]2O[C@H](COP(=O)(O)OP(=O)(O)OC[C@H]3O[C@@H](n4cnc5c(N)ncnc54)[C@H](O)[C@@H]3O)[C@@H](O)[C@H]2O)c1
tested-on: BjPutA (proline utilization A) (Bradyrhizobium diazoefficiens, UniProt Q89E26, D778Y)
Kd, µM: 0.67

###

Molecular target: BjPutA (proline utilization A) (Bradyrhizobium diazoefficiens, UniProt Q89E26, D779Y)
Sequence (Q89E26 1-999 D779Y): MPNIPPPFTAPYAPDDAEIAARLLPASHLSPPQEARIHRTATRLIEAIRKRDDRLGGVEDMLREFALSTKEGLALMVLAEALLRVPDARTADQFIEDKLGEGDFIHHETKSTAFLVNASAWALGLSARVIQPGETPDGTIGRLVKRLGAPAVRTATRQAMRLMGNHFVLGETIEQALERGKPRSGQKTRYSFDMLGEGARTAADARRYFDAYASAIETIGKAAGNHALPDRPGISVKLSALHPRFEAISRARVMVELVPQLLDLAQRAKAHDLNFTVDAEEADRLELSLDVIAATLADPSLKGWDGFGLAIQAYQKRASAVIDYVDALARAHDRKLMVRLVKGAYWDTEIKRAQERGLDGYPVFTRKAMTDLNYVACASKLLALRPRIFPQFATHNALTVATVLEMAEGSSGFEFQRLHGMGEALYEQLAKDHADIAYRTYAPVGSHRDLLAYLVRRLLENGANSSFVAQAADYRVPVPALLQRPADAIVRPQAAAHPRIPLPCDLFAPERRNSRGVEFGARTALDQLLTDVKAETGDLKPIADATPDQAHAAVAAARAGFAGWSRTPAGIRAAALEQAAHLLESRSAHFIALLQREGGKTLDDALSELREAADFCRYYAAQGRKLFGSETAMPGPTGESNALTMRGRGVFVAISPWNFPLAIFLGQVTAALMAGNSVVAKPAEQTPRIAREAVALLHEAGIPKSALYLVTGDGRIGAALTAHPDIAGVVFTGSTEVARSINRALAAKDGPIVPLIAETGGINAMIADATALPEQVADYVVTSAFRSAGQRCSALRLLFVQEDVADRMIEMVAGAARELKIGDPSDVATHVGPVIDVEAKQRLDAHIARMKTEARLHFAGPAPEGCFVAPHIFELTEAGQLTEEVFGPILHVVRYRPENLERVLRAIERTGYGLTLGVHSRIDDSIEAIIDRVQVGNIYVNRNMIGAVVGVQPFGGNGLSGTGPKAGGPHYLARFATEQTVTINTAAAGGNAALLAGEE
Experiment: intrinsic tryptophan fluorescence quenching
pKd: −log10 of the molar value.
assay-readout: pKd

smiles-repr: NC(=O)c1ccc[n+]([C@@H]2O[C@H](COP(=O)(O)OP(=O)(O)OC[C@H]3O[C@@H](n4cnc5c(N)ncnc54)[C@H](O)[C@@H]3O)[C@@H](O)[C@H]2O)c1
tested-on: BjPutA (proline utilization A) (Bradyrhizobium diazoefficiens, UniProt Q89E26, D779Y)
assay-readout: pKd
value-measured: 6.19
